Just for reference, ChEMBL document CHEMBL5726731 is where these values come from.

assay: Measurement of Sodium Ion Channel Blocking Effects: In order to measure the sodium ion channel blocking effect, an IonFlux16 Auto patch clamp system (Fluxion, Inc.) and a plate for exclusive use were used. The cells were distributed in an extracellular solution (4 mM KCl, 138 mM NaCl, 1 mM MgCl2, 1.8 mM CaCl2, 5.6 mM glucose, 10 mM HEPES, pH 7.45), and then dispensed in the specified region of the plate, and each of the prepared compound samples was diluted at various concentrations, and then dispensed in the specified region of the plate.; assay type: cell-based
Readout type: IC50

Field: example entries. Status: answers known.
Q. # get_value(readout='IC50', item= CNC1CCN(c2c(F)cccc2Nc2ccc(S(=O)(=O)Nc3cscn3)cc2Cl)C1 (stereo not given) )
A. 375 nM

Q. Record: CNC1CCN(c2cc(F)ccc2Nc2ccc(S(=O)(=O)Nc3cscn3)cc2)C1 (stereo not given)
A. 396 nM

Q. Could you do the same for CN(C)[C@H]1CCN(c2cc(OC(F)F)ccc2Nc2cc(F)c(S(=O)(=O)Nc3cscn3)cc2Cl)C1 , please?
A. 46 nM

Others:
Q. What value of IC50 has been reported for the following molecule? CN[C@@H]1CCCN(c2cc(OC)ccc2Nc2c(F)cc(S(=O)(=O)Nc3cscn3)cc2F)C1
A. > 1000 nM

Q. Query CC(=O)N[C@@H]1CCN(c2cc(Cl)ccc2Nc2cc(F)c(S(=O)(=O)Nc3cscn3)cc2Cl)C1 next
A. 120 nM
